Molecular target: Gelatinase
Experiment: particle concentration fluorescence assay of MMP inhibition in vitro
Details: fluorescein/biotin-labelled substrate, avidin-coated particles, room temperature, pH 7.5
Description: Inhibitory activity is evaluated in one or more of the MMP enzymes (stromelysin, gelatinase, and collagenase) in vitro using particle concentration fluorescence assay. […] Without an inhibitor present, the substrate is degraded by MMP enzymes and the fluorescein group is removed, therefore, no fluorescent signal can be detected. […] After 15 minutes, the fluorescence values are measured following filtration and washing of the beads. Ki values are then calculated.
Exercise: state measured Ki for each of the compounds provided.
Give bare numbers, in nM.

The examples below pair each entry with its known result.
CCCCCCCCS(=O)(=O)N[C@H](Cc1c[nH]c2ccccc12)C(=O)NO    12.1
CC(C)[C@@H](NS(=O)(=O)c1ccccc1)C(=O)NO    82
COc1ccc(S(=O)(=O)N[C@H](Cc2c[nH]c3ccccc23)C(=O)NO)cc1    7.81
O=C(NO)[C@@H](Cc1c[nH]c2ccccc12)NS(=O)(=O)c1ccccc1    14.2
O=C(NO)[C@@H](Cc1c[nH]c2ccccc12)NS(=O)(=O)c1ccc(Br)cc1    2.6
CCC(C)(C)C(NS(=O)(=O)c1ccc(OC)cc1)C(=O)NO (stereo not drawn)    9.8
COc1ccc(S(=O)(=O)N[C@H](Cc2ccccc2)C(=O)NO)cc1    7.23
COc1ccc(S(=O)(=O)N[C@@H](C(=O)NO)c2ccccc2)cc1    3.3

# input for lookup
## Input Record request: Ki value, item O=C(NO)[C@@H](Cc1c[nH]c2ccccc12)NS(=O)(=O)c1ccc(F)cc1
## Output 79
